Cited source for all entries: patent US5798373A

# test-description: Rat hepatocyte metabolism (metabolic stability)
# Type: in vitro ADME
# condition-details: rat hepatocytes, after 3 h, mass spectroscopy; read-out: percentage of compound remaining
Each entry below carries its recorded remaining at 3 h.
assay-readout: remaining at 3 h (%)

# molecule, unit-abbreviation, censoring-sign, observed-result
measured = [
    ("COc1ccc([C@H](Cc2ccncc2)c2ccccc2)cc1OC1CCCC1 [WO94/14732 comparison compound, reference compound]", "%", "=", 6),
    ("COc1ccc([C@H](Cc2ccncc2)c2ccc(NC(=O)NCc3ccc(F)cc3)cc2)cc1OC1CCCC1 [Example 1]", "%", ">", 80),
]
